# systemTested: T1, Soluble E2 (sE2), amino acids 384 to 661 of HCV genotype 1a strain H77 (Hepatitis C virus genotype 1a, H77, UniProt P27958)
# T1 construct: source: High Five insect cells, recombinant baculovirus, secreted, purified (Ni-nitrilotriacetic acid chromatography)
# T1 sequence (P27958 384-661): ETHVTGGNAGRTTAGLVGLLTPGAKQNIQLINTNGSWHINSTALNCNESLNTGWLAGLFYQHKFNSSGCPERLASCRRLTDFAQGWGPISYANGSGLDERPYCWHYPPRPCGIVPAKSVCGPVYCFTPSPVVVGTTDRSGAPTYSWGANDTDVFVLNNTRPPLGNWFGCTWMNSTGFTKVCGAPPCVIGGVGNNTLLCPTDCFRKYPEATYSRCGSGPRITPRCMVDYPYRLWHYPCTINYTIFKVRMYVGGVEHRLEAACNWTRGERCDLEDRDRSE
# method: SPR; Biacore 3000, sE2 immobilised on CM5 by amine coupling; MAbs or Fabs injected; HBS pH 7.2, 25°C, 20 μl/min; 1:1 Langmuir fit
# conditionDescription: both partners purified
Quick reference for kon among some binders
Expressed in M⁻¹ s⁻¹, but write only the number.

Recorded kon, per entry:
MAb C2 (mouse monoclonal antibody against C-epitope I) (antibody, V domains shown, source: also used as hybridoma supernatant) VH: EVQLQQPGAELVRPGGSVKLSCKASGYSFTTYWMNWVKQRPGQGLEWIGMIQPSDSETRLNQKFKDKATLTLDRSSSTVYMQLSSPTSDDSAVYYCARTGRGDAWLTYWGQGTSVTVSS VL: NIVLTQSPVSLAVSLGQRATISCRASKSVSTSGYSYMHWYQQKPGQPPRLLLYLGSNLESGVPARFSGSGSGTDFTLNIHPVEEEDAATYYCQHIRELTRSFGGGTKLEIK ... 18800
MAb AP33 (broadly neutralizing mouse monoclonal antibody) (antibody, V domains shown) VH: EVQLQESGPSLVKPSQTLSLTCSVTGDSITSGYWNWIRKFPGNKLEYMGYISYSGSTYYNLSLRSRISITRDTSKNQYYLQLNSVTTEDTATYYCALITTTTYAMDYWGQGTSVTVSS VL: NIVLTQSPVSLAVSLGQRATISCRASESVDGYGNSFLHWFQQKPGQPPKLLIYLASNLNSGVPARFSGSGSRTDFTLTIDPVEADDAATYYCQQNNVDPWTFGGGTKLEIK ... 649000
Fab fragment of AP33 (Fab, V domains shown, source: papain digestion of purified IgG; Fc removed on protein G, gel filtration) VH: EVQLQESGPSLVKPSQTLSLTCSVTGDSITSGYWNWIRKFPGNKLEYMGYISYSGSTYYNLSLRSRISITRDTSKNQYYLQLNSVTTEDTATYYCALITTTTYAMDYWGQGTSVTVSS VL: NIVLTQSPVSLAVSLGQRATISCRASESVDGYGNSFLHWFQQKPGQPPKLLIYLASNLNSGVPARFSGSGSRTDFTLTIDPVEADDAATYYCQQNNVDPWTFGGGTKLEIK ... 230000

Quick note, kon for Fab fragment of the C2 antibody (Fab, V domains shown, source: papain digestion of purified IgG; Fc removed on protein G, gel filtration) VH: EVQLQQPGAELVRPGGSVKLSCKASGYSFTTYWMNWVKQRPGQGLEWIGMIQPSDSETRLNQKFKDKATLTLDRSSSTVYMQLSSPTSDDSAVYYCARTGRGDAWLTYWGQGTSVTVSS VL: NIVLTQSPVSLAVSLGQRATISCRASKSVSTSGYSYMHWYQQKPGQPPRLLLYLGSNLESGVPARFSGSGSGTDFTLNIHPVEEEDAATYYCQHIRELTRSFGGGTKLEIK landed at 12800
